- System: P815, murine mastocytoma cell
- protocol: In vitro cytotoxicity (MTT) on P815
- Format: cell-based
- test parameters: Mus musculus, 24-hour cell culture
pIC50: −log10 of the molar value.
Assign pIC50 to each entry below.

Give a short answer stating reported pIC50 for "Nc1ccc(CCNc2nc(NCCCCO)nc(Nc3cccc(N)c3)n2)cc1" . < 4.00

Give a short answer stating reported pIC50 for CC(Nc1nc(Nc2cccc(N)c2)nc(Nc2cccc(N)c2)n1)c1cccc(N)c1 (centres unmarked) . < 4.00

Give a short answer stating reported pIC50 for "Nc1cccc(Nc2nc(N)nc(Nc3cccc(Nc4nc(N)nc(Nc5cccc(N)c5)n4)c3)n2)c1" . < 4.00

Give a short answer stating reported pIC50 for "CN1CCN(c2nc(NCCc3ccc(Nc4nc(Nc5cccc(N)c5)nc(N5CCN(C)CC5)n4)cc3)nc(Nc3cccc(N)c3)n2)CC1" . 5.60

Give a short answer stating reported pIC50 for "Nc1ccc(CCNc2nc(Nc3ccc(CCNc4nc(NCCO)nc(Nc5cccc(N)c5)n4)cc3)nc(Nc3cccc(N)c3)n2)cc1" . 4.18

Give a short answer stating reported pIC50 for "Nc1cccc(Nc2nc(NCCO)nc(Nc3cccc(Nc4nc(NCCO)nc(Nc5cccc(N)c5)n4)c3)n2)c1" . < 4.00

Give a short answer stating reported pIC50 for "Nc1ccc(CCNc2nc(NCCNc3nc(NCCc4ccc(N)cc4)nc(Nc4cccc(N)c4)n3)nc(Nc3cccc(N)c3)n2)cc1" . 4.48

Give a short answer stating reported pIC50 for "Nc1cccc(Nc2nc(NCCO)nc(NCc3cccc(F)c3)n2)c1" . < 4.00

From: patent US20090075867A1
